- studyTarget: T1, IFNλR1 (UniProt Q8IU57 21-228)
- T1 sequence (looked up): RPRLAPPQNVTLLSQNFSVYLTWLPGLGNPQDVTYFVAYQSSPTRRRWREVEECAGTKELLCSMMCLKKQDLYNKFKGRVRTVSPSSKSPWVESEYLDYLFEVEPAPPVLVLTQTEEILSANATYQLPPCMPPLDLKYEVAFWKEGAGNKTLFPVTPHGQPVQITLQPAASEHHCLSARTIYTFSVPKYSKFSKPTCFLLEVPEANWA
- procedureSummary: BLI
Kindly supply the reported pKd values for the records listed here.
Numbers only, as −log10 of the molar value.

>>> val("IFNλ4 variant M1 (L28N) (ligand, human, UniProt K9M1U5 22-179, looked up, biotinylated (site not stated) for BLI; N-glycan at N61; mutated L28N not glycosylated) AAPRRCNLSHYRSLEPRTLAAAKALRDRYEEEALSWGQRNCSFRPRRDPPRPSSCARLRHVARGIADAQAVLSGLHRSELLPGAGPILELLAAAGRDVAACLELARPGSSRKVPGAQKRRHKPRRADSPRCRKASVVFNLLRLLTWELRLAAHSGPCL")
7.85
>>> val("IFNλ4 WT purified from E. coli (eIFNλ4) (ligand, human, UniProt K9M1U5 22-179, looked up, biotinylated (site not stated) for BLI) AAPRRCLLSHYRSLEPRTLAAAKALRDRYEEEALSWGQRNCSFRPRRDPPRPSSCARLRHVARGIADAQAVLSGLHRSELLPGAGPILELLAAAGRDVAACLELARPGSSRKVPGAQKRRHKPRRADSPRCRKASVVFNLLRLLTWELRLAAHSGPCL")
7.72

Hi! Can you tell me pKd for each of these binders?
1. IFNλ4 variant M3 (P73N) (ligand, human, UniProt K9M1U5 22-179, looked up, biotinylated (site not stated) for BLI; N-glycans at N61 and at mutated P73N) AAPRRCLLSHYRSLEPRTLAAAKALRDRYEEEALSWGQRNCSFRPRRDPPRNSSCARLRHVARGIADAQAVLSGLHRSELLPGAGPILELLAAAGRDVAACLELARPGSSRKVPGAQKRRHKPRRADSPRCRKASVVFNLLRLLTWELRLAAHSGPCL
2. IFNλ4 variant M7 (L28N + P73N) (ligand, human, UniProt K9M1U5 22-179, looked up, biotinylated (site not stated) for BLI; N-glycans at N61 and at mutated P73N; mutated L28N not glycosylated) AAPRRCNLSHYRSLEPRTLAAAKALRDRYEEEALSWGQRNCSFRPRRDPPRNSSCARLRHVARGIADAQAVLSGLHRSELLPGAGPILELLAAAGRDVAACLELARPGSSRKVPGAQKRRHKPRRADSPRCRKASVVFNLLRLLTWELRLAAHSGPCL

### Response
1: 7.66; 2: 7.77
